# System Under Test: Kappa-type opioid receptor (Homo sapiens, UniProt P41145)
# Sequence (P41145 whole entry): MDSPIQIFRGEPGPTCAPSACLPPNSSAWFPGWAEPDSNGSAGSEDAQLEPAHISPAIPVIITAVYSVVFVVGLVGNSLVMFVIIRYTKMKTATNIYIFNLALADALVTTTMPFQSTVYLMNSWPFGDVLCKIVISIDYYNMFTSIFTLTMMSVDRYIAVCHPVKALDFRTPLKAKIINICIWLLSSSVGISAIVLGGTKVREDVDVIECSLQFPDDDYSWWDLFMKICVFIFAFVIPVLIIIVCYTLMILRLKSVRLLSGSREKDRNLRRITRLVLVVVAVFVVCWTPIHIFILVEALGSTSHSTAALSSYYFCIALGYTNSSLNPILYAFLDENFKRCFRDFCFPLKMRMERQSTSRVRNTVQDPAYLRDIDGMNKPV
# Assay Name: Inhibition of kappa opioid receptor (unknown origin)
Observed Property: pIC50
In textbook form, pIC50 equals minus log to base ten of the concentration in mol/L.

# annotated cases, reported pIC50 shown
[[record]]
smiles_notation = "NCCCCN(C[C@H]1Cc2ncccc2CN1)[C@H]1CCCc2cccnc21"
observed_property = "pIC50"
observed_result = 5.96

[[record]]
smiles_notation = "c1cnc2c(c1)CN[C@@H](CN(CCCCNC1CCOCC1)[C@H]1CCCc3cccnc31)C2"
observed_property = "pIC50"
observed_result = 5.37

[[record]]
smiles_notation = "NCCCCN(C[C@H]1Cc2cccnc2CN1)[C@H]1CCCc2cccnc21"
observed_property = "pIC50"
observed_result = 5.40


// next item, pIC50 requested
Query `NCCCCN(C[C@H]1Cc2ccccc2CN1)[C@H]1CCCc2cccnc21` yields pIC50 of 5.80

----------
# System Under Test: Neuronal acetylcholine receptor subunit alpha-7 (Homo sapiens, UniProt P36544)
# Sequence (P36544 whole entry): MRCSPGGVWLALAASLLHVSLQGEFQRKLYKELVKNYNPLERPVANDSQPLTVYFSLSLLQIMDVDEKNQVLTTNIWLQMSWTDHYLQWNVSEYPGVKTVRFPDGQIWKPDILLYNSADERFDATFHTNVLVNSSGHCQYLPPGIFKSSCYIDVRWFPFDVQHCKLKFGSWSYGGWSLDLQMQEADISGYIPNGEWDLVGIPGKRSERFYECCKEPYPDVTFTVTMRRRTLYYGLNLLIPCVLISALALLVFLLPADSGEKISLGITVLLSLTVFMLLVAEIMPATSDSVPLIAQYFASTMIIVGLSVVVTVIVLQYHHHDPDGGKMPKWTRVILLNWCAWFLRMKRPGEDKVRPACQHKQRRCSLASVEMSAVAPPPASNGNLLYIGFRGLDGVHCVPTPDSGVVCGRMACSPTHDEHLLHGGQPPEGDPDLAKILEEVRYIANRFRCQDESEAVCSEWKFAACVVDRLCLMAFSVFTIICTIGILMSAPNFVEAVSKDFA
# Assay Name: Inhibition of alpha7 nicotinic acetylcholine receptor (unknown origin)
Observed Property: IC50 (µM)
Field: numeric (µM). Do not append units.

[[record]]
smiles_notation = "c1cnc2c(c1)CN[C@@H](CN(CCCC1CCNCC1)[C@H]1CCCc3cccnc31)C2"
observed_property = "IC50"
result_unit = "µM"
observed_result = 17


// next item, IC50 requested
Query `c1cnc2c(c1)CN[C@@H](CN(CCCCN1CCOCC1)[C@H]1CCCc3cccnc31)C2` yields IC50 of 11

----------
# System Under Test: Cytochrome P450 2D6 (Homo sapiens, UniProt P10635)
# Sequence (P10635 whole entry): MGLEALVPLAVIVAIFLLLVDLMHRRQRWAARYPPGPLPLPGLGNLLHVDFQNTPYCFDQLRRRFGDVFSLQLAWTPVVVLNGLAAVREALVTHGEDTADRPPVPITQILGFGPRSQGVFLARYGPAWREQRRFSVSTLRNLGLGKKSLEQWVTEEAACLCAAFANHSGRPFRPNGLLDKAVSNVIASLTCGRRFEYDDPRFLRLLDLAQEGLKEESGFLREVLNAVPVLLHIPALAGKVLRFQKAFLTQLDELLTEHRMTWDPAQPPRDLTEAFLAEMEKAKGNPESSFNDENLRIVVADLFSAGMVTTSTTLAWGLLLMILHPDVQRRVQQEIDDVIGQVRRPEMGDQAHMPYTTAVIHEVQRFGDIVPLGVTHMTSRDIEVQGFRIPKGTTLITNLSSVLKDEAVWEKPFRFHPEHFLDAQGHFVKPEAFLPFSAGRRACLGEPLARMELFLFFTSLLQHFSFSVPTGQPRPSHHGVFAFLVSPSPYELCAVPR
# Assay Name: Inhibition of recombinant human CYP2D6 using AMMC as substrate preincubated for 30 mins followed by substrate addition measured after 45 mins by fluorescence based assay
Property: IC50; scope: individual compounds
Field: numeric (nM). Do not append units.

# annotated cases, reported IC50 shown
[[record]]
smiles_notation = "NCc1ccc(CN(C[C@H]2Cc3ncccc3CN2)[C@H]2CCCc3cccnc32)cc1"
system_under_test = "Cytochrome P450 2D6 (Homo sapiens, UniProt P10635)"
observed_property = "IC50"
observed_result = 2700

[[record]]
smiles_notation = "NCCCCN(C[C@@H]1Cc2cccnc2CN1)[C@H]1CCCc2cccnc21"
system_under_test = "Cytochrome P450 2D6 (Homo sapiens, UniProt P10635)"
observed_property = "IC50"
observed_result = 4400


// next item, IC50 requested
Query `NC/C=C/CN(C[C@H]1Cc2ncccc2CN1)[C@H]1CCCc2cccnc21` yields IC50 of 700

----------
Property: IC50; scope: individual compounds
# System Under Test: Alpha-2A adrenergic receptor (Homo sapiens)
# Sequence (P08913 whole entry): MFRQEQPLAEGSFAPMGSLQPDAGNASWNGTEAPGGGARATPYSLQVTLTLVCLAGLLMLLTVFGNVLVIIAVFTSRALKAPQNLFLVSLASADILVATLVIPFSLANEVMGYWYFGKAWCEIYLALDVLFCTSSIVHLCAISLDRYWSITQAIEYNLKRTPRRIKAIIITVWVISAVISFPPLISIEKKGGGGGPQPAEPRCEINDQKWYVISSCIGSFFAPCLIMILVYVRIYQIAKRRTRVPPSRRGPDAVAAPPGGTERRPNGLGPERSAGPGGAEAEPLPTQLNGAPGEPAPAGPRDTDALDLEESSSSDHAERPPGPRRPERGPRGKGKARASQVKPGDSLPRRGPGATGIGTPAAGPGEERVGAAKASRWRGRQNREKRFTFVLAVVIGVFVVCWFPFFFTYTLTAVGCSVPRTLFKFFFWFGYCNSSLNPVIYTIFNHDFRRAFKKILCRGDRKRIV
Field: numeric (nM). Do not append units.

[[record]]
smiles_notation = "NCCCCN(C[C@H]1Cc2cccnc2CN1)[C@H]1CCCc2cccnc21"
observed_property = "IC50"
observed_result = 1300


// next item, IC50 requested
Query `CN(CCCCN(C[C@H]1Cc2ncccc2CN1)[C@H]1CCCc2cccnc21)C1CCC(F)(F)CC1` yields IC50 of 810

----------
# Assay Name: Therapeutic index, ratio of TC50 for human TZM-bl cells to IC50 for antiviral activity against HIV-1 NL4-3 (X4) pseudovirus infected in human TZM-bl cells assessed as reduction in viral infectivity
# Type: toxicity, cell-based
Observed Property: selectivity ratio

Query `CN(CCCCN(C[C@H]1Cc2ncccc2CN1)[C@H]1CCCc2cccnc21)C1CCC(F)(F)CC1` yields selectivity ratio of > 1000
